- Test system: Aspergillus niger
- MEASUREMENT NOTES: Antifungal activity against Aspergillus niger after 7 days by broth microdilution method
- Format: functional
- CONDITION DETAILS: 168 h
EXPERIMENTAL ENDPOINT: MIC

- COMPOUND: "C[C@@H]1[C@H](O)[C@@H](C)/C=C/C=C/C=C/C=C/C=C/C=C/C=C/[C@H](O[C@@H]2O[C@H](C)[C@@H](O)[C@H](N)[C@@H]2O)C[C@@H]2O[C@](O)(C[C@@H](O)C[C@@H](O)[C@H](O)CC[C@@H](O)C[C@@H](O)CC(=O)O[C@H]1C)C[C@H](O)[C@H]2C(=O)O"
  EXPERIMENTAL ENDPOINT: "MIC"
  VALUE: "100 mg/L"
- COMPOUND: "CC(CCCCCCCCC(=O)CCCCCCCCC[C@@H](O)CO)C(=O)C1=C(O)[C@H](Cc2ccc(O)cc2)NC1=O (some centres not stated)"
  EXPERIMENTAL ENDPOINT: "MIC"
  VALUE: "> 88 mg/L"
- COMPOUND: "CC(CCCCCCCCC(=O)CCCCCCCCC[C@@H](O)CO[C@@H]1O[C@H](CO)[C@@H](O)[C@H](O)[C@H]1O)C(=O)C1=C(O)C(Cc2ccc(O)cc2)=NC1=O (some centres not stated)"
  EXPERIMENTAL ENDPOINT: "MIC"
  VALUE: "> 55 mg/L"
- COMPOUND: "CC1=CC[C@H]([C@](C)(O)CCC(O)C(C)(C)O)CC1 (some centres not stated)"
  EXPERIMENTAL ENDPOINT: "MIC"
  VALUE: "> 118 mg/L"
- COMPOUND: "CC[C@H](C)[C@@H](NC(=O)[C@@](C)(CC)NC(=O)[C@@H]1C[C@@H](O)CN1C(=O)C(C)(C)NC(=O)[C@@](C)(CC)NC(=O)C(C)(C)NC(=O)[C@@H]1C[C@@H](O)CN1C(=O)[C@@](C)(CC)NC(=O)[C@H](CC(C)C)NC(=O)[C@@H]1C[C@@H](O)CN1C(=O)[C@](C)(CC)NC(=O)[C@H](CC(C)C)NC(=O)[C@@H]1C[C@@H](O)CN1C(=O)C(C)(C)NC(C)=O)C(=O)O[C@@H]([C@H](O)[C@H](O)CO)[C@H](O)CO"
  EXPERIMENTAL ENDPOINT: "MIC"
  VALUE: "> 118 mg/L"
- COMPOUND: "CC(CCCCCCCCC(=O)CCCCCCCCCC(O)CO[C@@H]1O[C@H](CO)[C@@H](O)[C@H](O)[C@@H]1O)C(=O)C1=C(O)C(Cc2ccc(O)cc2)NC1=O (some centres not stated)"
  EXPERIMENTAL ENDPOINT: "MIC"
  VALUE: "14.4 mg/L"
- COMPOUND: "CC[C@H](C)[C@@H](NC(=O)[C@@](C)(CC)NC(=O)[C@@H]1C[C@@H](O)CN1C(=O)[C@@](C)(CC)NC(=O)[C@@](C)(CC)NC(=O)C(C)(C)NC(=O)[C@@H]1C[C@@H](O)CN1C(=O)[C@@](C)(CC)NC(=O)[C@H](CC(C)C)NC(=O)[C@@H]1C[C@@H](O)CN1C(=O)[C@](C)(CC)NC(=O)[C@H](CC(C)C)NC(=O)[C@@H]1C[C@@H](O)CN1C(=O)C(C)(C)NC(C)=O)C(=O)O[C@@H]([C@H](O)[C@H](O)CO)[C@H](O)CO"
  EXPERIMENTAL ENDPOINT: "MIC"
  VALUE: "> 118 mg/L"
